biological target: c-kit kinase (Homo sapiens, UniProt P10721); construct: The c-kit (or kinase domain thereof) is an active kinase in AlphaScreen; poly-Histidine tag (in-house protein only) (cleaved yes); host or cells: E. coli BL21(DE3)RIL, co-expressed with PTP1B; experiment: c-Kit biochemical assay, AlphaScreen, 10 μM ATP; conditions: c-kit biochemical inhibitory activity; read-out: Biochemical activity (IC50 μM) Kit
Sequence (P10721 26-976): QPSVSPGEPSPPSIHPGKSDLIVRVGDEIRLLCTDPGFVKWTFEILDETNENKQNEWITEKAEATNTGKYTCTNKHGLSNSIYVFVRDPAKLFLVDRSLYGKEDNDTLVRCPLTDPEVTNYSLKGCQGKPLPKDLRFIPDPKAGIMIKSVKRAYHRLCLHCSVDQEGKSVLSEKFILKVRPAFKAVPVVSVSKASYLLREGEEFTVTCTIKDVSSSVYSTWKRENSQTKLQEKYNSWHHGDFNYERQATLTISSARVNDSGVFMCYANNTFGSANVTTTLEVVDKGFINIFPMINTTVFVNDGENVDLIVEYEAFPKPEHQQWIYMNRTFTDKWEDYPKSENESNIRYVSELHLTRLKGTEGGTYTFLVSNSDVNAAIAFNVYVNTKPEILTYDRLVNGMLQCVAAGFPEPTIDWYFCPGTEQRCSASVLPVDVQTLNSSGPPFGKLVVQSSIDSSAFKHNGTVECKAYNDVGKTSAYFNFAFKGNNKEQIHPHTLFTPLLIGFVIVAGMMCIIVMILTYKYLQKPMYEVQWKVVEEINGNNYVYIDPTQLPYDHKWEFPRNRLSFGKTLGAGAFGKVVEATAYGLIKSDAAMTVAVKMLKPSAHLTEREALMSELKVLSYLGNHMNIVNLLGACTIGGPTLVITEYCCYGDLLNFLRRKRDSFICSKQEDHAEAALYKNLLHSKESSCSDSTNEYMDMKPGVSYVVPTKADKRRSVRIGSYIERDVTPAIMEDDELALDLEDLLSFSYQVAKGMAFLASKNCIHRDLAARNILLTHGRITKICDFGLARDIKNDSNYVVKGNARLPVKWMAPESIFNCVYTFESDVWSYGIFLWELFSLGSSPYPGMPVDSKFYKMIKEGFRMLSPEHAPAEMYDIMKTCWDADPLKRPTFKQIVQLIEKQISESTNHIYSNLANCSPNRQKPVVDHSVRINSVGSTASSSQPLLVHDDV
Attribute: IC50

compound | IC50
CC(C)Oc1ccc(S(=O)(=O)NC2CCN(c3ncnc4[nH]c(-c5cnn(C)c5)cc34)CC2)cc1 | 0.0001 to 1 µM
CN(C)c1ccc(NC(=O)N2CCN(c3ncnc4[nH]ccc34)CC2)cc1 | 1 to 10 µM
Cc1ccc(-c2cc3c(N4CCC(NS(=O)(=O)c5ccc(OC(F)(F)F)cc5)CC4)ncnc3[nH]2)cn1 | 10 to 200 µM

Query: Recall the reported IC50 of `COc1cccc([C@H](C)NC(=O)N2CCN(c3ncnc4[nH]c(-c5ccncc5)cc34)C[C@H]2C)c1` on c-kit kinase (Homo sapiens, UniProt P10721) and write it down.
Response: 0.0001 to 1 µM

Query: Give c-kit kinase (Homo sapiens, UniProt P10721) IC50 for the following compound: Cc1ccc(-c2cc3c(C4=CCC(NS(=O)(=O)c5ccc(OC(F)(F)F)cc5)CC4)ncnc3[nH]2)cn1 (centres unmarked) [P-0281]
Response: 10 to 200 µM

Query: Give c-kit kinase (Homo sapiens, UniProt P10721) IC50 for the following compound: `COCCOc1cc2ncnc(-c3ccc(NS(C)(=O)=O)cc3F)c2cc1OCCOC`
Response: 10 to 200 µM

Query: Give IC50; test system c-kit kinase (Homo sapiens, UniProt P10721); compound `Cn1cc(-c2cc3c(N4CCN(C(=O)NCc5ccc(Cl)cc5)CC4)ncnc3[nH]2)cn1`
Response: 0.0001 to 1 µM

Query: Provide the reported IC50 (system: c-kit kinase (Homo sapiens, UniProt P10721)) for `COc1cc(-c2cc3ncnc(N4CCN(C(=O)N[C@@H](C)c5cccc(Cl)c5)C(C)(C)C4)c3s2)ccn1`
Response: 1 to 10 µM

Query: Fill in IC50 for `Cc1cc2c(-c3ccc(NS(=O)(=O)C4CC4)cc3)ncnc2[nH]1` tested with c-kit kinase (Homo sapiens, UniProt P10721).
Response: 10 to 200 µM

Query: Please look at `COc1ccc([C@@H](C)NC(=O)N2CCN(c3ncnc4[nH]c(-c5ccc(Cl)cc5)cc34)C[C@H]2C)cc1` and tell me its recorded IC50 on c-kit kinase (Homo sapiens, UniProt P10721).
Response: 10 to 200 µM

Query: Report the value of IC50 obtained on c-kit kinase (Homo sapiens, UniProt P10721) for `Cc1ccc(S(=O)(=O)Nc2ccc(-c3ncnc4[nH]c(C)cc34)c(F)c2)cc1` .
Response: 1 to 10 µM

Query: For c-kit kinase (Homo sapiens, UniProt P10721), give the measured IC50 of the entry `CS(=O)(=O)Nc1ccc(-c2ncnc3[nH]c(-c4ccc(F)cc4)cc23)cc1F`
Response: 0.0001 to 1 µM

Query: Answer with IC50 of `Cc1nc(C)c(-c2cc3ncnc(N4CCN(C(=O)N[C@@H](C)c5cccc(Cl)c5)C(C)(C)C4)c3s2)s1` measured for c-kit kinase (Homo sapiens, UniProt P10721).
Response: 10 to 200 µM

Query: Provide IC50, tested on c-kit kinase (Homo sapiens, UniProt P10721), for `COc1ccc(NC(=O)N2CCN(c3ncnc4[nH]ccc34)CC2)cc1` .
Response: 10 to 200 µM

Query: Under c-kit kinase (Homo sapiens, UniProt P10721), report IC50 for `Cn1cc(-c2cc3c(N4CCC(NS(=O)(=O)c5ccc(Cl)s5)CC4)ncnc3[nH]2)cn1`
Response: 10 to 200 µM

Query: Determine reported IC50 for `COc1ccc(C(=O)N2CCN(c3ncnc4[nH]ccc34)CC2)cc1` ; test system: c-kit kinase (Homo sapiens, UniProt P10721).
Response: 10 to 200 µM

Query: Please tell me the measured IC50 for `C[C@H](NC(=O)N1CCN(c2ncnc3[nH]c(-c4ccc(F)cc4)cc23)C[C@H]1C)c1ccc(F)cc1` ; system: c-kit kinase (Homo sapiens, UniProt P10721).
Response: 10 to 200 µM
